- PROCEDURE_DETAILS: Pharmacokinetic study in mice, cassette intravenous injection and intragastric administration
- Assay type: in vivo
- ASSAY_CONDITIONS: mouse, plasma, IV 0.2 mg/kg, Balb/c female mice, read-out: Clearance rate CL
MEASURED_QUANTITY: clearance (mL/min/kg)

Cn1cc(-c2ccc3c(-c4cc(NS(=O)(=O)C5CC5)cc(-c5ccc(F)cc5F)c4)cnn3c2)cn1 [Compound 1] | 8.53

(P) CCS(=O)(=O)Nc1cc(-c2ccc(F)cc2F)cc(-c2cnn3cc(-c4cnn(C)c4)ccc23)c1 [Compound 2]
(Q) Cn1cc(-c2ccc3c(-c4cc(NS(C)(=O)=O)cc(-c5ccc(F)cc5F)c4)cnn3c2)cn1 [Compound 4]
Exercise: // compare measured clearance between P and Q ; output the lower one Write down the label of the entry you select.
Solution: P

* * *

- MEASUREMENT_TARGET: human FGFR2 (Homo sapiens, UniProt P21802)
- Sequence (P21802 22-821): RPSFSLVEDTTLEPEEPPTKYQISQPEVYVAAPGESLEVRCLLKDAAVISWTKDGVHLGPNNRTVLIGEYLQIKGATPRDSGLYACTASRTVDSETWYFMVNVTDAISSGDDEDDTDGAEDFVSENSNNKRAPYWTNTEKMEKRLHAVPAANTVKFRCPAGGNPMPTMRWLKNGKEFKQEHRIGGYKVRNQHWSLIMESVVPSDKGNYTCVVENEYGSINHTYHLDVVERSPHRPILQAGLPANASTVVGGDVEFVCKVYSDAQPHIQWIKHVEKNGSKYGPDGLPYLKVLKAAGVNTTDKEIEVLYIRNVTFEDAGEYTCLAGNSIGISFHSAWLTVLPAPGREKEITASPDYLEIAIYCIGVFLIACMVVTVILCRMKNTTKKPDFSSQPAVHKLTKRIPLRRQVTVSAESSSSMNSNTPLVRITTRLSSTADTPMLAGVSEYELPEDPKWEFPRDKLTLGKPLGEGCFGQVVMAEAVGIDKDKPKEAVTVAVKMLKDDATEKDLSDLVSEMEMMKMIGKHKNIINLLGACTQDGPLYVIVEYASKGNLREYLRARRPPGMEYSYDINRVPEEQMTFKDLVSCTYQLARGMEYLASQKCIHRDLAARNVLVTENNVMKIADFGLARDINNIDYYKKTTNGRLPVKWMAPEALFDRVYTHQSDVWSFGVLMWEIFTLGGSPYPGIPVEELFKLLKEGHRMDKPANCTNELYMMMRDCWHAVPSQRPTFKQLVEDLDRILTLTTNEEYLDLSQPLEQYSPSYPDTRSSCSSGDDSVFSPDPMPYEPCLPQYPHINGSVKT
Where a name gives a salt, the structure may show the parent alone.
MEASURED_QUANTITY: IC50 (nM)

// worked examples, IC50 included
Cn1cnc(-c2ccc3c(-c4cc(NS(C)(=O)=O)cc(-c5ccc(F)cc5F)c4)cnn3c2)c1 [Trifluoroacetate salt of compound 27] | 2.55
Cn1cc(-c2ccc3c(-c4cc(NS(=O)(=O)C5CC5)cc(-c5ncc(F)cc5F)c4)cnn3c2)cn1 [Trifluoroacetate salt of compound 11] | 0.76

(1) Cn1cc(-c2ccc3c(-c4cc(NS(=O)(=O)C5CC5)cc(-c5cccnc5F)c4)cnn3c2)cn1 [Trifluoroacetate salt of compound 10]
(2) CN1CCC(n2cc(-c3ccc4c(-c5cc(NS(C)(=O)=O)cc(-c6ncc(F)cc6F)c5)cnn4c3)cn2)CC1
(3) O=S(=O)(Nc1cc(-c2ncc(F)cc2F)cc(-c2cnn3cc(-c4cnn(C5CCNCC5)c4)ccc23)c1)C1CC1 [Hydrochloride salt of compound 47]
(4) CCS(=O)(=O)Nc1cc(-c2ccc(F)cc2F)cc(-c2cnn3cc(-n4cnc(C)n4)ccc23)c1
Exercise: hey, can you rank those compounds up there by IC50? biggest number first please Put the labels in the order asked and list them.
Solution: 4, 1, 3, 2
(4: 142 nM, 1: 36.5 nM, 3: 0.45 nM, 2: 0.23 nM)

* * *

- PROCEDURE_DETAILS: Pharmacokinetic study in mice, cassette intravenous injection and intragastric administration
- Type: in vivo
- ASSAY_CONDITIONS: mouse, plasma, PO 1 mg/kg, Balb/c female mice, read-out: Peak concentration Cmax
MEASURED_QUANTITY: Cmax (nM)

CCS(=O)(=O)Nc1cc(-c2ccc(F)cc2F)cc(-c2cnn3cc(-c4cnn(C)c4)ccc23)c1 | 388
Cn1cc(-c2ccc3c(-c4cc(NS(C)(=O)=O)cc(-c5ccc(F)cc5F)c4)cnn3c2)cn1 | 463
Cn1cc(-c2ccc3c(-c4cc(NS(=O)(=O)C5CC5)cc(-c5ccc(F)cc5F)c4)cnn3c2)cn1 | 540

* * *

Form: system (human VEGFR2 (Homo sapiens, UniProt P35968)), quantity (IC50), values below.
Structures can show the parent of a compound that is named as a salt.
MEASURED_QUANTITY: IC50 (nM)

// worked examples, IC50 included
CS(=O)(=O)Nc1cc(-c2ncc(F)cc2F)cc(-c2cnn3cc(-c4cnn(CC5COCCO5)c4)ccc23)c1 (stereo not shown) | 0.66
CS(=O)(=O)Nc1cc(-c2ncc(F)cc2F)cc(-c2cnn3cc(-c4cnn(CC5COCCN5Cc5ccccc5)c4)ccc23)c1 (stereo not shown) | 11.2
Cn1cc(-c2ccc3c(c2)ncn3-c2cc(NS(=O)(=O)C3CC3)cc(-c3ccc(F)cc3F)c2)cn1 [reference compound] | 27.2

(I) Cn1cc(-c2ccc3c(-c4cc(NCC5COC(C)(C)O5)cc(-c5ccc(F)cc5F)c4)cnn3c2)cn1 (stereo not shown)
(II) Cn1cc(-c2ccc3c(-c4cc(NS(C)(=O)=O)cc(-c5ccc(F)cc5F)c4)cnn3c2)nn1 [Trifluoroacetate salt of compound 26]
(III) Cn1cc(-c2ccc3c(-c4cc(NS(=O)(=O)C5CC5)cc(-c5ncc(F)cc5F)c4)cnn3c2)cn1 [Trifluoroacetate salt of compound 11]
(IV) Cn1cc(-c2ccc3c(-c4cc(NCC5COC(C)(C)O5)cc(-c5ncc(F)cc5F)c4)cnn3c2)cn1 (stereo not shown)
Exercise: hey, can you rank those compounds up there by IC50? biggest number first please Put the labels in the order asked and list them.
Solution: I, IV, II, III

* * *

- PROCEDURE_DETAILS: Pharmacokinetic study in mice, cassette intravenous injection and intragastric administration
- Assay type: in vivo
- ASSAY_CONDITIONS: mouse, plasma, IV 0.2 mg/kg, Balb/c female mice, read-out: Apparent volume of distribution Vdss
MEASURED_QUANTITY: Vd (L/kg)

CCS(=O)(=O)Nc1cc(-c2ccc(F)cc2F)cc(-c2cnn3cc(-c4cnn(C)c4)ccc23)c1 | 1.2
Cn1cc(-c2ccc3c(-c4cc(NS(=O)(=O)C5CC5)cc(-c5ccc(F)cc5F)c4)cnn3c2)cn1 | 1.25
Cn1cc(-c2ccc3c(-c4cc(NS(C)(=O)=O)cc(-c5ccc(F)cc5F)c4)cnn3c2)cn1 | 1.4

* * *

- PROCEDURE_DETAILS: Pharmacokinetic study in mice, cassette intravenous injection and intragastric administration
- Format: in vivo
- ASSAY_CONDITIONS: mouse, plasma, PO 1 mg/kg vs IV 0.2 mg/kg, Balb/c female mice, read-out: Bioavailability F
MEASURED_QUANTITY: bioavailability (%)

Cn1cc(-c2ccc3c(-c4cc(NS(=O)(=O)C5CC5)cc(-c5ccc(F)cc5F)c4)cnn3c2)cn1 [Compound 1] | 74

(I) Cn1cc(-c2ccc3c(-c4cc(NS(C)(=O)=O)cc(-c5ccc(F)cc5F)c4)cnn3c2)cn1 [Compound 4]
(II) CCS(=O)(=O)Nc1cc(-c2ccc(F)cc2F)cc(-c2cnn3cc(-c4cnn(C)c4)ccc23)c1 [Compound 2]
Exercise: When their bioavailability values are compared, which is larger, I or II ? Write down the label of the entry you select.
Solution: I
(I: 73.2%, II: 43.8%)

* * *

- PROCEDURE_DETAILS: Pharmacokinetic study in mice, cassette intravenous injection and intragastric administration
- Assay type: in vivo
- ASSAY_CONDITIONS: mouse, plasma, PO 1 mg/kg, Balb/c female mice, read-out: Area under the plasma concentration-time curve AUC
MEASURED_QUANTITY: AUC (µM·h)

CCS(=O)(=O)Nc1cc(-c2ccc(F)cc2F)cc(-c2cnn3cc(-c4cnn(C)c4)ccc23)c1 [Compound 2] | 1.98
Cn1cc(-c2ccc3c(-c4cc(NS(=O)(=O)C5CC5)cc(-c5ccc(F)cc5F)c4)cnn3c2)cn1 [Compound 1] | 2.48
Cn1cc(-c2ccc3c(-c4cc(NS(C)(=O)=O)cc(-c5ccc(F)cc5F)c4)cnn3c2)cn1 [Compound 4] | 1.9

Reference source: patent US12325703B2
